Reference for the values: the supplement of paper PMC9170038

Collected apparent KD of MS2 coat protein values appear next to each entry.
test system: MS2 coat protein; test: apparent KD of MS2 coat protein; designed switch direction (-1 OFF switch, 1 ON switch): -1; higher = weaker reporter binding; conditions: Eterna round: R95; input ligand: microRNA oligo, concentration not stated
readout.kind: apparent KD of MS2 coat protein

INSERT INTO assay_data (chain, reported_measurement) VALUES
  ('GCAGUGCGAGGAUAUACAUGAGGAUCACCCAUGUGAGAAUAAGAAGUGAGGAAGAAAAGUAGAAGGCGCGUUGG [Mat - Exclusion 3 - Mod of Salish D66] (puzzle: Exclusion 3)', '36.4 nM'),
  ('UGCAUGCUAGGAUAUACGAAACAUUAGGGUUCUUUGUAUGAACAUGAGGAUCACCCAUGUAGAAGGAGCGUGCU [Mod7 of JL-ex2-2.15 mat747 mod] (puzzle: Exclusion 2)', '92.4 nM'),
  ('ACAACAAGCUUUUUGAACGUAGAACAUGCAGCUCUAGAAACAUGAGGAUCACCCAUGUAAGCCAGUUAGAUAGGUGA [JR_SV3TOV2_Sub067] (puzzle: Sensor v3, turn-off variant 2)', '69.1 nM');

* * *

system: MS2 coat protein; test: apparent KD of MS2 coat protein; higher = weaker reporter binding; details: Eterna round: R107; input ligand: arginine 13.2 mM
readout.kind: apparent KD of MS2 coat protein (nM)

INSERT INTO results (chain, target_entity, readout_kind, reported_measurement) VALUES
  ('AUAAUAAAGUCGGCCGCCACUAUAAACAUGAGGAACAUGAGGAUCACCCAUGUAUGAGGAUCACCUAGGACCGGGACAAAUAUUA [AstrosExyTryB#3]', 'MS2 coat protein', 'apparent KD of MS2 coat protein', 47.3),
  ('CUAAAUAUAUCGGCCGCCACUUACUCAUGAGGUAACAACAUGAGGAUCACCCAUGUUUGAGGAUCAAGGACCGGGAUAUAUUUAG [AstrosSSTryB#16]', 'MS2 coat protein', 'apparent KD of MS2 coat protein', 26.1),
  ('UGCUGACAAGGACAUGGAUGAUCAGCUGAUACCAGCCUGGAAACAGGCCCUUGGCAGCAGCACAUGAGGAUCACCCAUGUAAUAA [(T)''-(M)''-(T1)-(T2)-(M1)-(M2)_Design3(Mismatches)]', 'MS2 coat protein', 'apparent KD of MS2 coat protein', 28.4),
  ('CUGUUUACAUGAGCCCGUCAUAUAUACGAUACCAGUUAAAGAUGAAACCCUUGGCAGCGUAGGACAUGAGGAUCACCCAUGUGCC [theeternabot_exclusion_MS2_Theo_A_17]', 'MS2 coat protein', 'apparent KD of MS2 coat protein', 15.6),
  ('UAUCGUCAGACGGCCGCCACUAGAACAUGAGGAUCACCCAUGUAGGUCCUAGAUUCCUCAAUAACUAGGACCGGGUCUGACGAAU [(Trp1)-(Ms2)-(T)''-(M)''-(Trp2)_Design14]', 'MS2 coat protein', 'apparent KD of MS2 coat protein', 81.8);

* * *

system: MS2 coat protein; assay: apparent KD of MS2 coat protein; designed switch direction (-1 OFF switch, 1 ON switch): -1; higher = weaker reporter binding; conditions: Eterna round: R95; input ligand: none
readout.kind: apparent KD of MS2 coat protein (nM)

INSERT INTO results (chain, reported_measurement) VALUES
  ('CGAGAGCGAGGAUAUACACAACUCCUCACUGUCAAGAAAGGACAUGAGGAUCACCCAUGUAGAAGGUGCAAAAC [Quries] (puzzle: Exclusion 2)', 120),
  ('CUAGCUUCGGCUAGUACAAGCUUUUUGCUCGUCUUAUUAACAUGAGGAUCACCCAUGUCAAAGAGACCUCAUGUAUU [Sensor v3 - turn-off variant 2 - 2] (puzzle: Sensor v3, turn-off variant 2)', 572),
  ('AUAGUAGAAGUGAGGAUAUCGUAGAUUUUUUGAAACGAGAAGGCACAUGAGGAUCACCCAUGUAAGAUGGAGGU [JR_BMOE4_Sub052] (puzzle: Brourd''s mod of Exclusion 4)', 319),
  ('UCAUGGAAGCAGGAUAUGCUUGUUUAAUUGUUUGCAGAAGGGCUAACAUGAGGAUCACCCAUGUGAGAGGUCUA [JR_E6_Sub064] (puzzle: Exclusion 6)', 36.7),
  ('UGUACUAACACGUAAGUGUUAGUACUAUAAGCUUGUGUUACAUGAGGAUCACCCAUGUCCUCAUAAGCUCGUCUUAA [Mat - Sensor v3 - Turn-off var 2 - D72] (puzzle: Sensor v3, turn-off variant 2)', 37.2),
  ('UGUACGAUGCGUGCUGACAUGCGUCGUGCAGCAGGUGUUACAUGAGGAUCACCCAUGUCCUCAUUUGCUCGUCUUGU [SL-sv3-2.09 JL mod] (puzzle: Sensor v3, turn-off variant 2)', 374),
  ('AAUAACAGGCCGAUCCUAAACAUGAGGAUCACCCAUGUGCGCGUCUUGUAAAGUACUAUCACGAAAGUGAUAGUACA [Sensor v3, turn-off variant 1 (MOD of Eli''s v1-59 v.3)] (puzzle: Sensor v3, turn-off variant 1)', 43.7);

* * *

test system: MS2 coat protein; assay: apparent KD of MS2 coat protein, switch OFF state (with FMN for OFF switches, without FMN for ON switches); designed switch direction (-1 OFF switch, 1 ON switch): -1; higher = weaker reporter binding; conditions: FMN input: 0 or 200 uM; Eterna round: R93 (includes R88 designs)
Collected apparent KD of MS2 coat protein values appear next to each entry.
readout.kind: apparent KD of MS2 coat protein (µM)

INSERT INTO assay_data (chain, readout_kind, reported_measurement) VALUES
  ('AGCAGUACAGGAUAUACAUGAGGAUCACCCAUGUGAAAAUAAAGUGGCGUACCACAAAGUAGAAGGGUACUGCA [Mat - Exclusion 3 - JL mod - D31]', 'apparent KD of MS2 coat protein', 0.104),
  ('AACAGUACAGGAUAUACAUGAGGAUCACCCAUGUGAAAAUUAAGUGGCGUACCACAAAGUAGAAGGGUACUGGA [Moding Maslow revisited (73) 3]', 'apparent KD of MS2 coat protein', 0.0864),
  ('AGCUAGUGAGGAUAUACGAACAUGUCAAAAGACUGUAAGGGACAUGAGGAUCACCCAUGUAGAAGGCACUAGCA [Diamond 55]', 'apparent KD of MS2 coat protein', 0.294);

* * *

test system: MS2 coat protein; test: apparent KD of MS2 coat protein; designed switch direction (-1 OFF switch, 1 ON switch): -1; higher = weaker reporter binding; details: input ligand: microRNA oligo, concentration not stated
readout.kind: apparent KD of MS2 coat protein (nM)

INSERT INTO results (chain, readout_kind, units_symbol, reported_measurement) VALUES
  ('UUAAAUCAUGUAGGAUAUGCAAGGCGAACCUAUGCAGAAGGACAUGAGGAUCACCCAUGUGCUGCGGUCUGCGUACAGAUCGCU [JL ENG1 1.02] (Eterna round: R96, puzzle: Exclusion NG 1)', 'apparent KD of MS2 coat protein', 'nM', 30.7),
  ('CAACCUCACAACCGUUAAAACAUGAGGAUCACCCAUGUGCCAUAACGGCGCAUGAUCGAGCUAGGCCCGUCCAUGCA [Razaxe] (Eterna round: R96, puzzle: Sensor v2, turn-off variant)', 'apparent KD of MS2 coat protein', 'nM', 18.8),
  ('CUAAAUCAUGUAGGAUAUGCAUAGCGAAGCUAUGCAGAAGGACAUGAGGAUCACCCAUGUUCUUCCGUCUGAGAACAGACGGAA [Mat - Exclusion NG 1 - Mod of JL - D32] (Eterna round: R96, puzzle: Exclusion NG 1)', 'apparent KD of MS2 coat protein', 'nM', 21.1),
  ('GCAGCGUAUGUAGGAUAUCGGUCAGUUUCUGAUCGAGAAGGACAUGAGGAUCACCCAUGUAUAUUCUAGCGUGAGCUAGGCUGC [JL ENG1 3.70] (Eterna round: R96, puzzle: Exclusion NG 1)', 'apparent KD of MS2 coat protein', 'nM', 14.3),
  ('GUCGUGCGGCUUUGCUGUGCGAGUACAUGAGGAUCACCCAUGUAGGAUAUGGUACGCUUUGCGUGCCAGAAGGGCGUGCGUUGG [salish99_ExNG3_r04_007] (Eterna round: R96, puzzle: Exclusion NG 3)', 'apparent KD of MS2 coat protein', 'nM', 28.6),
  ('UAUCUACAUGUAGGAUAUGCGUGGCGAAGCUAUGCAGAAGGACAUGAGGAUCACCCAUGUUUUAGCGUCUGCGUACAGAUGCGU [JL ENG1 1.48] (Eterna round: R96, puzzle: Exclusion NG 1)', 'apparent KD of MS2 coat protein', 'nM', 16.4),
  ('GAUUGAGAGCAGGAUAUCUUAGAAAUGUAUUAAAGAGAAGGGCUCACAUGAGGAUCACCCAUGUGGUCCUAGAU [JL Dibiri mod 16] (Eterna round: R96, puzzle: Exclusion 6)', 'apparent KD of MS2 coat protein', 'nM', 22.8),
  ('AAGCAUUGCCAAAGGUAGUGCAAAACAUGAGGAUCACCCAUGUAGGAUAUGGUAGGCAAAGCUUACCAGAAGGACAUGAUAAAU [Mat - Exclusion NG 3 - Mod of JL - D19] (Eterna round: R96, puzzle: Exclusion NG 3)', 'apparent KD of MS2 coat protein', 'nM', 28),
  ('GCUUGUGGGCAAGGAUAUCCUACGCUGUUCUGGUUCGUGUCUGUCACAUGAGGAUCACCCAUGUGGGAGAAGGUGCCUUUGGUG [Design 63] (Eterna round: R96, puzzle: Exclusion NG 2)', 'apparent KD of MS2 coat protein', 'nM', 12.7),
  ('CCCAGAUAGGAAGGAUAUUGUACAUGAGGAUCACCCAUGUAAUAAAUGAGGAUCACGGAUGUAGACAAGAAGGUCCGGAUAGGC [Ostracism 7 - Jieux - Exclusion NG 2] (Eterna round: R96, puzzle: Exclusion NG 2)', 'apparent KD of MS2 coat protein', 'nM', 42.5),
  ('GGAUUACAUGAGGAUCACCCAUGUGAGGAUAUCGAUGUCCAGUAAUACGUGCGGGACUCGAGAAGGCACUUGGA [salish99-ex1-70] (Eterna round: R96, puzzle: Exclusion 1)', 'apparent KD of MS2 coat protein', 'nM', 80.7),
  ('CAGUCGAUAAGAUCAAUUAAUUAACAUGAGGAUCACCCAUGUGAGGAUAUCAGCUCGAUUAGAGCUGAGAAGGCACAACGACUG [ExNG3/17-A1] (Eterna round: R96, puzzle: Exclusion NG 3)', 'apparent KD of MS2 coat protein', 'nM', 31.3),
  ('CUCCGGCGUGUAGGAUAUGGUUCCGUUUAGGUUCCAGAAGGACAUGAGGAUCACCCAUGUACAUGUCGUCGGUCGUCACCGGGC [salish99_ExNG1_r04_213] (Eterna round: R96, puzzle: Exclusion NG 1)', 'apparent KD of MS2 coat protein', 'nM', 28.8),
  ('GGUGUCGUCAGAAGACAUGAGGAUCACCCAUGUAAAUGCACUGAGGAUAUACGGGCGACCGGCGUGUAGAAGGUAGAGCACGAA [Ladivequ] (Eterna round: R96, puzzle: Exclusion NG 3)', 'apparent KD of MS2 coat protein', 'nM', 24.5),
  ('UUCCUCACUUCUUUGUCUCACAUGAGGAUCACCCAUGUAAUAUAGGAUAUGCUUAGUAUUUCUAUGCAGAAGGAUAUUAGUUUU [JR_ExcNG3_Sub086] (Eterna round: R96, puzzle: Exclusion NG 3)', 'apparent KD of MS2 coat protein', 'nM', 27.3),
  ('CUUGUUUAUGUAGGAUAUGCCUGGCGUGCCUUUGCAGAAGGACAUGAGGAUCACCCAUGUAUUGCGGUCUGCGUUCAGAUCGCC [salish99_ExNG1_r4_042] (Eterna round: R96, puzzle: Exclusion NG 1)', 'apparent KD of MS2 coat protein', 'nM', 18.9),
  ('CGAUGCUCGUGUCCACAUGAGGAUCACCCAUGUCGAGUUAGCGAGGAUAUCGGUAACACAUAGUACGAGAAGGCGCGAACCUGA [Ex NG3 #27] (Eterna round: R96, puzzle: Exclusion NG 3)', 'apparent KD of MS2 coat protein', 'nM', 14.6),
  ('GCAGUGCGAGGAUAUACAUGAGGAUCACCCAUGUGAGAAUAAGAAGUGAGGAAGAAAAGUAGAAGGCGCGUUGG [Mat - Exclusion 3 - Mod of Salish D66] (Eterna round: R96, puzzle: Exclusion 3)', 'apparent KD of MS2 coat protein', 'nM', 49.5);
